Tested System: Pim-1 kinase (Homo sapiens)
Sequence (P11309 whole entry): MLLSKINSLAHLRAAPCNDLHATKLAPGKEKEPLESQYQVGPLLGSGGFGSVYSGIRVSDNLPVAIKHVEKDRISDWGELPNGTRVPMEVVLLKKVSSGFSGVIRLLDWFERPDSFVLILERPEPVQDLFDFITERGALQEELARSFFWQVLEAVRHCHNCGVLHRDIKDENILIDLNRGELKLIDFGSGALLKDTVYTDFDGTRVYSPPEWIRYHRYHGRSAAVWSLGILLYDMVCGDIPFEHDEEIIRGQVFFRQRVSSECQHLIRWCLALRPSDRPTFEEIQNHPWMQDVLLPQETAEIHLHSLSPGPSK
Procedure Summary: Pim-1 kinase inhibition assay (Promega Kinase-Glo)
Assay type: biochemical
Condition Summary: Table IV; Kinase-Glo, 10uM ATP; read-out: IC50 on Pim1
From the text: One illustrative manner in which Pim-1 kinase activity can be determined is by quantifying the amount of ATP remaining in solution after an in vitro Pim-1 kinase reaction. The Kinase-Glo Assay Kit (Promega, Inc., Madison, WI) allows this. […] Thus, the luminescent signal read by the Luminoskan Ascent Instrument (Thermo Electron Corp., Milford, MA) correlates with the amount of ATP present after the kinase reaction and inversely correlates with the amount of kinase acitivity. […]
Metric: pIC50
Answers are plain numbers, as −log10 of the molar value.

[[record]]
compound = "CC(C)(O)[C@H]1CC[C@H](Nc2ccn3ncc(-c4cccc(OC(F)(F)F)c4)c3n2)CC1 [8-47]"
tested_system = "Pim-1 kinase (Homo sapiens)"
metric = "pIC50"
reported_value = 6.69

[[record]]
compound = "CC(C)O[C@H]1CC[C@H](Nc2ccc3ncc(-c4cccc(OC(F)(F)F)c4)n3n2)CC1 [8-16]"
tested_system = "Pim-1 kinase (Homo sapiens)"
metric = "pIC50"
reported_value = 6.30

[[record]]
compound = "FC(F)(F)Oc1cccc(-c2cnc3ccc(NCC4CCOCC4)nn23)c1 [8-19]"
tested_system = "Pim-1 kinase (Homo sapiens)"
metric = "pIC50"
reported_value = 7.89

[[record]]
compound = "CC(C)(O)[C@H]1CC[C@H](Nc2ccn3ncc(-c4cccc(Cl)c4)c3n2)CC1 [8-63]"
tested_system = "Pim-1 kinase (Homo sapiens)"
metric = "pIC50"
reported_value = 7.64


Q. Query (compound): CO[C@H]1CC[C@H](Nc2ccn3ncc(-c4cccc(OC(F)(F)F)c4)c3n2)CC1 [8-49] ; field requested: pIC50
A. 6.42

----------
Give pIC50 for every item shown.
Tested System: UniProtKB Q12809
Sequence (Q12809 whole entry): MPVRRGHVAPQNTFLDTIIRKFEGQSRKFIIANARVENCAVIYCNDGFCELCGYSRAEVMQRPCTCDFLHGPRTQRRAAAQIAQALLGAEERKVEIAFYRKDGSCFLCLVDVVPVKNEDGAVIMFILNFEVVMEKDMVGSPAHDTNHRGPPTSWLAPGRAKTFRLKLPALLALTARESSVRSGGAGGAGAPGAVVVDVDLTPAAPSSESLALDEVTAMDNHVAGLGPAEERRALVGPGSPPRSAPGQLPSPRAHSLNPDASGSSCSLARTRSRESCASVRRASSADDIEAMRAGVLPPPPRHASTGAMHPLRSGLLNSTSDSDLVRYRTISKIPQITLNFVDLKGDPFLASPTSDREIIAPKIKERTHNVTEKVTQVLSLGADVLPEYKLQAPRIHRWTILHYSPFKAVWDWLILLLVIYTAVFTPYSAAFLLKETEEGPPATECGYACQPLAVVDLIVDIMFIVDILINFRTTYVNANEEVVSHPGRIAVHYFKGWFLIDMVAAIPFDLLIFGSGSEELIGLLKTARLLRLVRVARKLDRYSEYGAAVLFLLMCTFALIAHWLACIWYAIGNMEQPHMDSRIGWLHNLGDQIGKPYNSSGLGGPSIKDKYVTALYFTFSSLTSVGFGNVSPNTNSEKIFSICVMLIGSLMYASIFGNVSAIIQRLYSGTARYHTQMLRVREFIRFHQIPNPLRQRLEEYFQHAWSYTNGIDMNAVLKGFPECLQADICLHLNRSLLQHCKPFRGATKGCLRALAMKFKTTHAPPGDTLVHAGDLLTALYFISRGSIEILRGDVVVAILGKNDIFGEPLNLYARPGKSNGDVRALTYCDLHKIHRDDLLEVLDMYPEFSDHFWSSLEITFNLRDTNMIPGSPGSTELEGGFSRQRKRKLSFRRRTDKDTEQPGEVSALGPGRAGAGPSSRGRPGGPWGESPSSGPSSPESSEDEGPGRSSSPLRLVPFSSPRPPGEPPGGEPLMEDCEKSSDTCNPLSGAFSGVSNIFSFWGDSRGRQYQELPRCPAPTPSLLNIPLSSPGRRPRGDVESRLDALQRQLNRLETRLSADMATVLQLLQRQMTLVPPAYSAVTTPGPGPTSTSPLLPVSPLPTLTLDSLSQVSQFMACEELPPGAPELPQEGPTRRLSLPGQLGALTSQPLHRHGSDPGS
Procedure Summary: hERG Fast Patch assay (WuXiApptec)
Answers are plain numbers, as −log10 of the molar value.

[[record]]
compound = "C[C@]1(O)CC[C@H](Nc2ccc3ncc(-c4cccc(OC(F)(F)F)c4)n3n2)CC1 [8-9]"
reported_value = 4.59


Q. Can you look up pIC50 on UniProtKB Q12809 for O=S1(=O)CCC(CNc2ccc3ncc(-c4cccc(OC(F)(F)F)c4)n3n2)CC1 [8-13] ?
A. 5.00

----------
Tested System: Pim-1 kinase (Homo sapiens)
Procedure Summary: Pim-1 kinase inhibition assay (Promega Kinase-Glo)
Assay type: biochemical
Condition Summary: Table IV; Kinase-Glo, 10uM ATP; read-out: IC50 on Pim1
Metric: IC50 (nM)
Give bare numbers, in nM.

[[record]]
compound = "CC(C)(O)[C@H]1CC[C@H](Nc2ccc3ncc(-c4cccc(OC(F)(F)F)c4)n3n2)CC1 [8-10]"
metric = "IC50"
reported_value = 9

[[record]]
compound = "ON=C1CCC(Nc2ccc3ncc(-c4cccc(Cl)c4)n3n2)CC1 (stereo not drawn) [8-92]"
metric = "IC50"
reported_value = 38

[[record]]
compound = "CC(C)(O)[C@H]1CC[C@H](Nc2ccc3ncc(-c4cccc(F)c4)n3n2)CC1 [8-75]"
metric = "IC50"
reported_value = 56

[[record]]
compound = "O=S1(=O)CCC(CNc2ccn3ncc(-c4cccc(OC(F)(F)F)c4)c3n2)CC1 [8-51]"
metric = "IC50"
reported_value = 148


The following compounds each have a reported value; give each one's IC50.
1. O=S1(=O)CCN(c2ccc3ncc(-c4cccc(OC(F)(F)F)c4)n3n2)CC1 [8-15]
2. COCCOc1ccc2ncc(-c3cccc(OC(F)(F)F)c3)n2n1 [8-42]
3. Clc1cccc(-c2cnn3ccc(NC4CCOCC4)nc23)c1 [8-65]
4. Clc1cccc(-c2cnc3ccc(NC4CCOCC4)nn23)c1 [8-39]
5. FC(F)(F)c1cccc(-c2cnc3ccc(NC4CCOCC4)nn23)c1 [8-33]

A.
1: 2830; 2: 1970; 3: 186; 4: 48; 5: 33
